test: Clearance in healthy adult human subjects at 300 mg, po by HPLC method; format: ADME, organism-based; conditions: in vivo

{"columns": ["Compound", "CL/F, mL/min"],
 "data": [
  ["O=C1N=C([O-])NC1(c1ccccc1)c1ccccc1.[Na+] [PHENYTOIN SODIUM]", 41.3]
]}

* * *

experiment: AUC (0 to infinity) in healthy adult human subjects at 300 mg, po dosed 30 minutes after ingestion of soup (melahu rasam) with black pepper by HPLC method; type: ADME, organism-based; design: dose 300 mg, time infinity, route oral; settings: in vivo
Reported metric: AUC(0-inf) (µg·h/mL)

{"columns": ["Molecule", "Reported metric", "Readout value"],
 "data": [
  ["O=C1N=C([O-])NC1(c1ccccc1)c1ccccc1.[Na+] [PHENYTOIN SODIUM]", "AUC(0-inf)", 332]
]}

* * *

assay: Tmax in healthy adult human subjects at 300 mg, po dosed 30 minutes after ingestion of soup (melahu rasam) with black pepper by HPLC method; format: ADME, organism-based; conditions: in vivo

{"columns": ["Molecule", "Result unit", "Tmax"],
 "data": [
  ["O=C1N=C([O-])NC1(c1ccccc1)c1ccccc1.[Na+] [PHENYTOIN SODIUM]", "h", 3.38]
]}

* * *

experiment: Clearance in healthy adult human subjects at 300 mg, po dosed 30 minutes after ingestion of soup (melahu rasam) with black pepper by HPLC method; format: ADME, organism-based; details: in vivo

{"columns": ["Molecule", "CL/F"],
 "data": [
  ["O=C1N=C([O-])NC1(c1ccccc1)c1ccccc1.[Na+] [PHENYTOIN SODIUM]", "15.9 mL/min"]
]}

* * *

experiment: AUC (0 to infinity) in healthy adult human subjects at 300 mg, po by HPLC method; type: ADME, organism-based; parameters: dose 300 mg, route oral, time infinity; details: in vivo
Reported metric: AUC(0-inf)

{"columns": ["Compound", "Reported metric", "Readout value"],
 "data": [
  ["O=C1N=C([O-])NC1(c1ccccc1)c1ccccc1.[Na+] [PHENYTOIN SODIUM]", "AUC(0-inf)", "143 µg·h/mL"]
]}

* * *

experiment: Tmax in Swiss albino mouse serum at 0.3 mg, po by HPLC method; format: ADME, organism-based
Reported metric: Tmax (h)

{"columns": ["Query smiles", "Readout value"],
 "data": [
  ["O=C(/C=C/C=C/c1ccc2c(c1)OCO2)N1CCCCC1", 6]
]}

* * *

test: AUC (0 to infinity) in healthy adult human subjects after consumption of 44 mg equivalent of piperine in form of pepper in soup (melahu rasam) by HPLC method; format: ADME, organism-based; parameters: dose 44 mg, time infinity; conditions: in vivo, po

{"columns": ["Query smiles", "Result unit", "AUC(0-inf)"],
 "data": [
  ["O=C(/C=C/C=C/c1ccc2c(c1)OCO2)N1CCCCC1", "ng·h/mL", 5300]
]}

* * *

assay: Elimination half life in healthy adult human subjects at 300 mg, po by HPLC method; assay type: ADME, organism-based; conditions: in vivo, read-out: beta t1/2 (converted)
Reported metric: half-life (h)

{"columns": ["Compound", "Reported metric", "Readout value"],
 "data": [
  ["O=C1N=C([O-])NC1(c1ccccc1)c1ccccc1.[Na+] [PHENYTOIN SODIUM]", "half-life", 22.5]
]}
